Tested on: Rattus norvegicus
PROTOCOL SUMMARY: Acute toxicity in rat assessed as mortality up to 0.5 mmol/kg after 24 hrs by macroscopic analysis
Assay type: organism-based
CONDITION INFO: in vivo
OUTCOME MEASURE: Activity

- COMPOUND: "O=C(CCCCC1CCSS1)NCCCCCCCCNC(=O)c1c(O)c2ccccc2oc1=O (configuration not stated)"
  OUTCOME MEASURE: "Activity"
  REPORTED VALUE: "Non-toxic"
- COMPOUND: "NCCCCCCCCNC(=O)c1c(O)c2ccccc2oc1=O"
  OUTCOME MEASURE: "Activity"
  REPORTED VALUE: "Non-toxic"
- COMPOUND: "O=C(CCCCC1CCSS1)NCCCCCCNC(=O)c1c(O)c2ccccc2oc1=O (configuration not stated)"
  OUTCOME MEASURE: "Activity"
  REPORTED VALUE: "Non-toxic"
- COMPOUND: "Cc1ccc2oc(=O)c(C(=O)Nc3ccccc3N)c(O)c2c1"
  OUTCOME MEASURE: "Activity"
  REPORTED VALUE: "Non-toxic"
- COMPOUND: "NCCCCCCNC(=O)c1c(O)oc2ccccc2c1=O"
  OUTCOME MEASURE: "Activity"
  REPORTED VALUE: "Non-toxic"
- COMPOUND: "Cc1ccc2oc(=O)c(C(=O)NCCN)c(O)c2c1"
  OUTCOME MEASURE: "Activity"
  REPORTED VALUE: "Non-toxic"
- COMPOUND: "Nc1ccccc1NC(=O)c1c(O)c2ccccc2oc1=O"
  OUTCOME MEASURE: "Activity"
  REPORTED VALUE: "Non-toxic"
- COMPOUND: "Cc1ccc2oc(=O)c(C(=O)NCCCCCCCCN)c(O)c2c1"
  OUTCOME MEASURE: "Activity"
  REPORTED VALUE: "Non-toxic"
- COMPOUND: "CCOC(=O)c1c(O)oc2ccccc2c1=O"
  OUTCOME MEASURE: "Activity"
  REPORTED VALUE: "Non-toxic"
- COMPOUND: "Cc1ccc2oc(=O)c(C(=O)NCCCCCCCCNC(=O)CCCCC3CCSS3)c(O)c2c1 (configuration not stated)"
  OUTCOME MEASURE: "Activity"
  REPORTED VALUE: "Non-toxic"
- COMPOUND: "NCCNC(=O)c1c(O)c2ccccc2oc1=O"
  OUTCOME MEASURE: "Activity"
  REPORTED VALUE: "Non-toxic"
- COMPOUND: "CCOC(=O)c1c(O)c2cc(C)ccc2oc1=O"
  OUTCOME MEASURE: "Activity"
  REPORTED VALUE: "Non-toxic"
